B1: TPR t1 (parent)
chain: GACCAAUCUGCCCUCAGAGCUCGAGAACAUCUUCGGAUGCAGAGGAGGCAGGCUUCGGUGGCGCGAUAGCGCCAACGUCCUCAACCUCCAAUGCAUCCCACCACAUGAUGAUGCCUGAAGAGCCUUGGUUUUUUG

# Variants of: B1
# assay_name: polymerase ribozyme fitness, log enrichment relative to wild type (log ratio); higher = more active; in vitro selection for triplet polymerase activity
Mark condition met for reported polymerase ribozyme fitness (log ratio) of -5 or greater; mark condition not met for anything smaller.

sequence_record | group_label
GCCCAAUCUGCCCUCAGAGCUCGGGAACCUCUUCGGAUGCAGAGGAUGCAGGCUUCGGUGGCGCGAUAGCGCCAACGUCCUCAACCUCCAAUGCAUCCCACCACAUGAUGAUGCCUGAAAAGCCUUGGUUUUUUG | condition not met
GACCAAUCUGCCCUCAGAGCUCGAGAACAUCUUCGGAUGCACAGGAGGCAGGCUUCGGUGGCGCGAUAGCGCCAACGUCCUCAACCUUCAAUGCAUCCCACCACAAGAUGAUGCCUGAAGCGCCAUGGUUUUUUG | condition met
GACCAAUCUGCCCUCAGAGCUGGAGAACAUCUUCGGAUGCAGAGGAUGCAGGCUUCGGUGGCGCGAUAGCGCCAACGUCCUCAACCUCCAAUGCAUCCCACCACAUGAUGCUGCCUGAAGAGCCUUGGUUUUUUG | condition not met
GACCAAUCGGCCCUCAGAGCUCGAGAACAUCUUCGGAUGCAGAGGAGGCAGGCAUCGGUGGCGCGAUAGCGCCAACGUCCUCAACCUCCAAUGCAUGCCACCACAUGAUGAUGCCUGAAGAGCCUUGGUUCUUUG | condition met
GACCAAUCUGCCCUCAGAGCUCGAGAACAUCUUCGGAUGCAGAGGAGGCAGGCUUCGGUGGCGCGAUAGCGACAACGUCCUAAACCUCCAAUGCAUGCCACCACAUGAUGAUGGCUGAAGAGCCUUGGUUUUUUG | condition not met
GACCAAUCUGCCCUCAGAGCUCGAGAACAUCUUCGGAUGCACAGGAGGCAGGCUCCGGUAGCGCGAUAGCGCCAACGUCCUCAACCUCCAAUGCAUCCCACCACAUGAUGAUGCCUGAAGAGCGUUGGUUUAUUG | condition met
GACCAAUCUCCCCUCAGAGCUCGACAACAUGUUCGGAUGCAGAGGAGGCAGGCUUCGGUGGCGCGAUAGCGCCAACGUCCUCAACCUCAAAUGCAUCCCACCACAUGAUGAUGUCUGAAGAGCCUUGGUUUUUUG | condition not met
GACCAAUCUGCCCUCAGAGCUCGAGAACAUCUUCGGAUGCAGAGGAGGCAGGCUUCGGUGGCGCGAUAGCGCCAACGUCCUCAACCUCCAAUGCAUCCCACCACAUGAUCAUGCUUGAAGAGCCUUGGUUUUUUG | condition met
